- Tested on: Puccinia recondita f. sp. tritici
- assay: Test K: wheat leaf rust, preventive spray on wheat seedlings
- condition_notes: 200 ppm
value_type: Test K disease control rating (%)
Entry rule: numbers only, all in %.

For orientation, consider the following solved cases.
CC(C)Cn1c(-c2ccc(C#N)cc2)c(Cl)nc(-n2cncn2)c1=O    0
CCCCCn1c(-c2c(F)cccc2F)c(Cl)nc(-n2cccn2)c1=O    97
CC(C)Cn1c(-c2ccccc2C(F)(F)F)c(Cl)nc(-n2cncn2)c1=O    0
CCC(C)Cn1c(-c2c(F)cccc2F)c(Cl)nc(-n2ccnc2)c1=O (centres unmarked)    0

Query string: Tell me Test K disease control rating reported for `CC(C)Cn1c(-c2c(Cl)cccc2Cl)c(Cl)nc(-n2cccn2)c1=O`
Result string: 100
